test system: PfAP2-LT AP2 domain (GST-tagged); test: gcPBM binding intensity (ln(normalized median fluorescence intensity)); higher = stronger DNA binding
Over roughly 25,000 sequences, “ln(normalized median fluorescence intensity)” has its median near 8.9; the highest 2% begin near 10. What follows is part of a selection rich in the highest values, with near analogues and random picks from the rest.
Cut-off 9 on gcPBM binding intensity (ln), inclusive. At or above means true; below means false.

A selection of reference data follows.
TTAAAAAAAAGACACACACACATACACATATTTATA [CACACA_site7535]: true
TATCTCATAGTATACACACACACACGCGCACATATA [CACACA_site6917]: true
CTCCATATGAAACACACACACAAATGAAAAAAATAT [CACACA_site3018]: true
TCATAGTATAGACACACACACACACGCATATAAATA [CACACA_site6915]: true
CACAGACACGGACACACACACACAAAAAAAAAAAGA [CACACA_site4436]: true

# input Does gcPBM binding intensity (ln) meet or surpass 9 for TTTTATGCTCAATTATTAAGAAATACTTTTTCTTCC [XGTACX_negctrl_site208] ?
# output false

# input What about AGCTCGGAAAAATTAGCATGCAAAAAAAAAAAAAAA [TGCATGCA_site658] ?
# output false

---

tested on: PfAP2-LT AP2 domain (GST-tagged); experiment: gcPBM binding intensity (ln(normalized median fluorescence intensity)); higher = stronger DNA binding
The full ranking holds about 25,000 sequences; the median of “ln(normalized median fluorescence intensity)” is about 8.9, and the highest 2% start at about 10. The entries come from a sample that favours the highest values as a whole.
Answer each item with its documented gcPBM binding intensity (ln).
One number for each entry.

// solved cases for gcPBM binding intensity (ln) follow
TTATTATTCCCTCATTTTGTTACCATTATTTCAATT [CACACA_negctrl_site1023]: 8.88
GTTCATAAATTAAACACACACACACCGCTGGATACC [CACACA_site5779]: 9.77
GTTCATAAATTAAACACACACACACCCCTGGATACC [CACACA_site3331]: 10.1

List the reported gcPBM binding intensity (ln) of each sequence below.
1. GTTCATAAATTAAACACACACACACGGCTGGATACC [CACACA_site7545]
2. AGGACAAGGGTTACATGTACATATATATATATATAT [XGTACX_site901]

# output
1: 9.79; 2: 10.2

List the reported gcPBM binding intensity (ln) of each sequence below.
1. GACAAAAAATTAAAATAAAATAATAATATAATAAAA [GTGCAC_negctrl_site234]
2. CATATGTATATGACTACACACAAGGGTGTACATATA [CACACA_site1164]
3. CAAGGACAATTTACAAACATAATATATGTATATATA [TGCATGCA_negctrl_site5]
4. AATTTGAAATATGTGGTGCAGTTATATAATATGTTT [GTGCAC_site9885]

# output
1: 8.55; 2: 9.2; 3: 8.66; 4: 8.87

---

tested on: PfAP2-LT AP2 domain (GST-tagged); test: gcPBM binding intensity (ln(normalized median fluorescence intensity)); higher = stronger DNA binding
The full ranking holds about 25,000 sequences; the median of “ln(normalized median fluorescence intensity)” is about 8.9, and the highest 2% start at about 10. The list comes from a sample in which the highest values are over-represented; it also holds close analogues and randomly drawn sequences.
Cut-off 10 on gcPBM binding intensity (ln), inclusive. At or above means criterion met; below means criterion not met.

# input Does gcPBM binding intensity (ln) meet or surpass 10 for TTCCCCCCCAGACACACACACACATACATACCACAT [CACACA_site2305] ?
# output criterion met

# input What about TATTCCCCCCAACACACACACACACCGACATACCAC [CACACA_site8723] ?
# output criterion met

# input What about ACATTCTATACATACACACCCACACCCAAAAAAAAA [CACACA_site863] ?
# output criterion not met

# input What about AATATATATATATATATATATTTTTGTTAGAATATG [XGTACX_negctrl_site58] ?
# output criterion not met

# input What about TATTCCCCCAAACACACACACACACCCACATACCAC [CACACA_site2304] ?
# output criterion met
